Just for reference, BigSolDB 2.1 is where these values come from.

conditions: in transcutol, 313.2 K
Listed next: entries and their corresponding solubility (mole fraction).
Answer as a number with no unit attached.

1. CC(=O)N1CCN(c2ccc(OC[C@@H]3CO[C@@](Cn4ccnc4)(c4ccc(Cl)cc4Cl)O3)cc2)CC1 (racemic) | 0.0212

API: the following record is the query input.
Give solubility (mole fraction) for "O=C1NC(=O)C(c2ccccc2)(c2ccccc2)N1"
0.00166

---

conditions: in cyclohexane, 298.15 K
Recorded solubility (mole fraction), one value per entry.
Please state the value as a number alone, without comment.

1) O=C(C(=O)c1ccccc1)c1ccccc1 | 0.0107

Proceeding to the next molecule to report its solubility (mole fraction).
Look up and state reported solubility (mole fraction) for "c1ccc2cc3ccccc3cc2c1"
0.00155
